System: MCF-10A
protocol_text: Cytotoxicity against human MCF10A cells assessed as reduction in cell viability incubated for 24 hrs by MTT assay
Type: ADME, cell-based
quantity_measured: IC50 (µM)
Use µM as the unit, but write only the number.

smiles_code=COc1ccc(NC(=O)Cn2cc(COc3ccccc3OCc3cn(CC(=O)Nc4ccc(OC)cc4)nn3)nn2)cc1 measured_result=33.4

# evaluate next
Incoming: Complete the entry with IC50 for O=C(Cn1cc(COc2ccccc2OCc2cn(CC(=O)Nc3ccc(Cl)cc3)nn2)nn1)Nc1ccc(Cl)cc1
Outgoing: 14

Taken from ChEMBL document CHEMBL4396938.
